Hello, the source for this data is PubChem BioAssay (NCI), in case you need it.

Measured TGI by item
system: HCT-116 colon; assay: NCI tumour cell line growth inhibition, 48 h
ENDPOINT LABEL: TGI

>>> readout_value("O=C(/C=C/c1ccccc1)c1c[nH]c2ccccc2c1=O")
"12.1 µM"
>>> readout_value("[C-]#[O+].[Cl][Sn]([Cl])[Cl].[Cl][Sn]([Cl])[Cl].[Pt].c1ccc([PH+](c2ccccc2)c2ccccc2)cc1.c1ccc([PH+](c2ccccc2)c2ccccc2)cc1")
"> 100 µM"
>>> readout_value("CNC(C)Cc1ccccc1O (centres undefined)")
"> 100 µM"
>>> readout_value("COC(=O)CCC(C)[C@H]1CCC2C3C(C[C@H](OC(C)=O)[C@@]21C)[C@@]1(C)CCC2(C[C@H]1C[C@H]3OC(C)=O)OOC1(CCC(C)CC1)OO2 (some centres undefined)")
"> 100 µM"
>>> readout_value("Cc1oc2nc[nH]c(=O)c2c1C(=O)/C=C/c1ccc(Cl)cc1")
"3.94 µM"
>>> readout_value("O=c1cc(CO)n(CCc2c[nH]c3ccccc23)cc1O")
"> 100 µM"
>>> readout_value("Cc1nc2ccccc2c(=O)n1-c1n[nH]c2ccccc12")
"> 100 µM"
>>> readout_value("Cc1cc(=O)n(-c2ccccc2)c(=O)o1")
"> 100 µM"
>>> readout_value("C/C(=N/NC(=O)c1ccncc1)c1ccc(NC(=O)C(=O)Nn2c(=S)[nH]c3ccccc3c2=O)cc1")
"> 100 µM"

* * *

tested on: MDA-MB-435
Possible outcomes: Y = active, N = inactive

>>> classification("NC(=O)c1cc(-c2ccncc2)cc(-c2ccccc2)c1N")
"N"
>>> classification("CCOC(=O)C1=C(C)NC2SC(=O)/C(=C\\c3ccccc3Cl)N2C1c1ccccc1 (configuration not stated)")
"N"
>>> classification("CCN(CC)C(=O)CC1=C(C)/C(=C/c2[nH]c(-c3ccc[nH]3)cc2OC)N=C1C")
"Y"
>>> classification("COc1ccc(C[n+]2c3ccccc3n3c4ccc(N)cc4ccc32)c(OC)c1OC")
"N"
>>> classification("Cc1cc(N2CCN(C)CC2)nc(NCc2cc(Nc3ccnc4cc(Cl)ccc34)ccc2F)n1")
"N"
>>> classification("O=C(COc1ccc(/C=C2\\Oc3ccccc3C2=O)cc1)Nc1nccs1")
"N"
>>> classification("COc1ccc(-c2nn(-c3ccc(NC(=O)c4ccc(Cl)c(C(F)(F)F)c4)cc3)cc2-c2ccncc2)cc1Cl")
"N"
>>> classification("COc1cc(-c2n/c(=C\\c3c(O)[nH]c4ccc(Cl)cc34)cc3c2=Nc2ccccc2-3)cc(OC)c1OC")
"N"
>>> classification("Cc1c(C)c2c(c(C)c1NC(=O)/C=C\\C(=O)O)CCC(C)(CCCC(C)CCCC(C)CCCC(C)C)O2 (configuration not stated)")
"N"
>>> classification("COc1ccc(Cl)cc1Nc1nc(C(F)(F)F)ccc1C(=O)N/N=C/c1ccc([N+](=O)[O-])cc1")
"N"
>>> classification("Cc1oc2nc[nH]c(=O)c2c1C(=O)/C=C/c1ccc(Cl)cc1")
"N"
>>> classification("O=C(/C=C1\\C(=O)N(Cc2ccc([N+](=O)[O-])cc2)c2ccccc21)c1ccc(OCCN2CCCCC2)cc1")
"N"

* * *

tested on: MCF7 breast; experiment: NCI tumour cell line growth inhibition, 48 h
A collection of molecules and their measured GI50
ENDPOINT LABEL: GI50

>>> readout_value("Cc1onc(-c2c(F)cccc2Cl)c1-c1ncc(-c2ccc(Cl)cc2)o1")
"4.49 µM"
>>> readout_value("CN(Cc1cnc(N)nc1N)c1ccc(C(=O)O)cc1")
"> 100 µM"
>>> readout_value("CN1CCN(c2ccc(-c3ccc4ncc(C#N)c(Nc5ccc(F)c(Cl)c5)c4c3)cc2)CC1")
"3.18 µM"
